Ref: ChEMBL document CHEMBL5291721

Measured AC50, listed per entry for reference.
- assay-system: Gamma-aminobutyric acid receptor subunit alpha-1 (Rattus norvegicus, UniProt P62813); further: assay procedure not described here
- Sequence (P62813 whole entry): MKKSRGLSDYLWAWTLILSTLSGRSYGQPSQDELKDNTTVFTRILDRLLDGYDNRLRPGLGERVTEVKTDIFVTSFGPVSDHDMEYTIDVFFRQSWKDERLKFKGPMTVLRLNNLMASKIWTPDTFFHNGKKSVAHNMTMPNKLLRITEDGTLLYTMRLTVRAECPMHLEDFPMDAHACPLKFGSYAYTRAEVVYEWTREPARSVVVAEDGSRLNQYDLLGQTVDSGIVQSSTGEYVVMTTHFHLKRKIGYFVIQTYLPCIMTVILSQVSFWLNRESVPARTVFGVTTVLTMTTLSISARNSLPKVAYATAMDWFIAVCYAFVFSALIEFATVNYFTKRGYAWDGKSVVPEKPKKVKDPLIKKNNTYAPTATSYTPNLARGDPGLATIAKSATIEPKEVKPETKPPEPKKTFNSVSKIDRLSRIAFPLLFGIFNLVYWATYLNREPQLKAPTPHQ
- Type: functional

COc1ccc2c3c1O[C@H]1[C@@H](O)C=C[C@H]4[C@@H](C2)N(C)CC[C@@]341 [CODEINE] ... > 10 µM
CN(C)CC/C=C1\c2ccccc2CSc2ccccc21 [DOTHIEPIN] ... > 30 µM
CNC1Cc2ccccc2N(C)c2ccccc21 (configuration not stated) [METAPRAMINE] ... > 30 µM
CCOC(=O)[C@H](CCc1ccccc1)N[C@@H](C)C(=O)N1C(=O)N(C)C[C@H]1C(=O)O ... > 30 µM
C[C@@H]1O[C@@H](O[C@@H]2C=C3CC[C@@H]4[C@H](CC[C@]5(C)[C@@H](c6ccc(=O)oc6)CC[C@]45O)[C@@]3(C)CC2)[C@H](O)[C@H](O)[C@H]1O [PROSCILLARIDIN] ... > 30 µM
C[C@H]1COc2c(C3(N)CC3)c(F)cc3c(=O)c(C(=O)O)cn1c23 [PAZUFLOXACIN] ... > 10 µM
O=[N+]([O-])O[C@@H]1CO[C@H]2[C@@H]1OC[C@@H]2O [ISOSORBIDE MONONITRATE] ... > 10 µM
c1cnc(N2CCN(Cc3ccc4c(c3)OCO4)CC2)nc1 [PIRIBEDIL] ... > 30 µM
C=CCN1CCCC1CNC(=O)c1cc(S(N)(=O)=O)cc(OC)c1OC (configuration not stated) [VERALIPRIDE] ... > 30 µM
NS(=O)(=O)Cc1noc2ccccc12 [ZONISAMIDE] ... > 10 µM

Query block: Item under review: NCC[C@H](O)C(=O)N[C@@H]1C[C@H](N)[C@@H](O[C@H]2O[C@H](CN)[C@@H](O)[C@H](O)[C@H]2O)[C@H](O)[C@H]1O[C@H]1O[C@H](CO)[C@@H](O)[C@H](N)[C@H]1O [AMIKACIN] . Reported AC50?
Result block: > 10 µM

Query block: Item under review: CC[C@@H]1C(=O)OC[C@@H]1Cc1cncn1C [PILOCARPINE] . Reported AC50?
Result block: > 10 µM
